system: human glioblastoma cell line SF-268; experiment: Proliferation test (cellular dehydrogenase activity), SF-268; type: cell-based
In this section, each of the compounds is paired with its reported EC50.
Hi! Could you send only the number? It should be in µg/mL, unit omitted.

These solved cases illustrate the format of a correct answer.
COMPOUND	VALUE
COc1ccc(C(=O)C=C2c3ccccc3C(=O)c3ccccc32)cc1	0.02
O=C(C=C1c2ccccc2C(=O)c2ccccc21)c1cccc(O)c1	2.22
COc1ccc(C(=O)C=C2c3ccccc3C(O)c3ccccc32)cc1 (stereo not drawn)	0.227
O=C(C=C1c2ccccc2C(=O)c2ccccc21)c1ccc(O)c(O)c1	0.076
Cc1ccc(C(=O)C=C2c3ccccc3C(=O)c3ccccc32)cc1	0.2

As a next step, examine the compound that follows.
Name the recorded EC50 of the item "COc1csc(C(=O)C=C2c3ccccc3C(=O)c3ccccc32)c1" in your answer.
0.331

----------
REPORTED PROPERTY: melting point

These solved cases illustrate the format of a correct answer.
COMPOUND	REPORTED PROPERTY	VALUE
O=C(C=C1c2ccccc2C(=O)c2ccccc21)c1cccc(O)c1 [Compound 12]	melting point	185 °C
Cc1ccc(C(=O)C=C2c3ccccc3C(=O)c3ccccc32)cc1 [Compound 9]	melting point	129 °C
O=C1c2ccccc2C(=CC(=O)N2CCSCC2)c2ccccc21 [Compound 3]	melting point	177 to 178 °C
COc1ccc(N2CCN(C(=O)C=C3c4ccccc4C(=O)c4ccccc43)CC2)cc1 [Compound 5]	melting point	189 to 190 °C
COc1ccc(C(=O)C=C2c3ccccc3C(=O)c3ccccc32)c(O)c1OC [Compound 8]	melting point	176 to 178 °C

Name the recorded melting point of the item O=C(O)C=C1c2ccccc2C(=O)c2ccccc21 [Compound 17] in your answer.
180 to 182 °C

----------
molecular target: complete recombinant KIF5A (Homo sapiens); construct: Here, use was made of complete recombinant KIF5A; assay: Inhibition of KIF5A ATPase activity (end-point assay); conditions: microtubulus-activatable ATPase
Sequence (Q12840 whole entry): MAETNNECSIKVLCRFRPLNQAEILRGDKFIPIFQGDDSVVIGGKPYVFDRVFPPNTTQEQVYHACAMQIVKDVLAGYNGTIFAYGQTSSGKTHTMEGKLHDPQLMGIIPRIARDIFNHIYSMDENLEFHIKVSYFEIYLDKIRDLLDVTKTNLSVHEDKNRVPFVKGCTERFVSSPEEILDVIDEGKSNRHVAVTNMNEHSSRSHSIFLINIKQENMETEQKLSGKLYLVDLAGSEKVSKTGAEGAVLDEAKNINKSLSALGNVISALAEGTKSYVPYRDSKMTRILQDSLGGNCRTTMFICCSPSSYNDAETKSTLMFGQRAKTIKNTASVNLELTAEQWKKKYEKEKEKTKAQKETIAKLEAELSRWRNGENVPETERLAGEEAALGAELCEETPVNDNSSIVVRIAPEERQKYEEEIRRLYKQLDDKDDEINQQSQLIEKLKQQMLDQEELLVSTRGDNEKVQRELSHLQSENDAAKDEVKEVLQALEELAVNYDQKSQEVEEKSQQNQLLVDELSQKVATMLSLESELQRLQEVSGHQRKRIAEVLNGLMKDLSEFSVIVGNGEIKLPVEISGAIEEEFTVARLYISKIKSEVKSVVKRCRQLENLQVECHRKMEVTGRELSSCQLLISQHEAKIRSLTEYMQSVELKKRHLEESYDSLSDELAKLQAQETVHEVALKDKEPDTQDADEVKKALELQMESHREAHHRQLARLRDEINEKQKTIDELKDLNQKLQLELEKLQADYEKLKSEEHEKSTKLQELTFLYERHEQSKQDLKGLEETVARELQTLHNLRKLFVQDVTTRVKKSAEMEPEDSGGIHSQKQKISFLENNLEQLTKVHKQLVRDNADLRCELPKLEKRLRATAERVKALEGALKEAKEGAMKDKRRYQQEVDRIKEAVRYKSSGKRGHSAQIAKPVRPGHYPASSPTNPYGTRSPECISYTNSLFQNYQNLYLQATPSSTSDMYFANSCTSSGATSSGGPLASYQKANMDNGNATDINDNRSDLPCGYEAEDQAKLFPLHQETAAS
REPORTED PROPERTY: EC50
Kindly format the answer as number then unit.

Name the recorded EC50 of the item "O=C(C=C1c2ccccc2C(=O)c2ccccc21)c1ccc(O)c(O)c1" in your answer.
61.9 µM

----------
In this section, each of the molecules is paired with its reported melting point.
Hi! Could you send only the number? It should be in °C, unit omitted.

These solved cases illustrate the format of a correct answer.
STRUCTURE NOTATION	UNITS LABEL	melting point
O=C(C=C1c2ccccc2C(=O)c2ccccc21)c1ccccc1	°C	128
COc1ccc(C(=O)C=C2c3ccccc3C(=O)c3ccccc32)cc1OC	°C	160
O=C(C=C1c2ccccc2C(=O)c2ccccc21)c1cccs1	°C	126

As a next step, examine the molecule that follows.
Name the recorded melting point of the item "COC(=O)C=C1c2ccccc2C(=O)c2ccccc21" in your answer.
113

----------
REPORTED PROPERTY: melting point

MOLECULE	melting point
O=C(C=C1c2ccccc2C(=O)c2ccccc21)c1ccc(O)cc1 [Compound 10]	211 to 212 °C
COc1ccc(C(=O)C=C2c3ccccc3C(=O)c3ccccc32)cc1 [Compound 7]	120 to 122 °C

Name the recorded melting point of the item COc1csc(C(=O)C=C2c3ccccc3C(=O)c3ccccc32)c1 [Compound 2] in your answer.
200 to 201 °C

Name the recorded melting point of the item COc1ccc(C(=O)C=C2c3ccccc3C(O)c3ccccc32)cc1 (centres unmarked) [Compound 4] in your answer.
169 to 172 °C

Name the recorded melting point of the item COc1cc(C(=O)C=C2c3ccccc3C(=O)c3ccccc32)cc(OC)c1OC [Compound 16] in your answer.
151 to 152 °C
